Assignment: determine reported IC50 for the given compounds.
Test system: Lp(a) production in HepG2^K17 cells
Assay: LPA3 screen: inhibition of Lp(a) production in transfected HepG2 cells, Lp(a) in media by ELISA
Assay type: cell-based
Details: Homo sapiens, 8 hours, 0.3 to 50 μM compound, Lp(a) normalized for total protein, read-out: Lp A3 IC50

Quick one: IC50 for O=C(c1ccccc1OCc1ccccc1)N(Cc1cccnc1)Cc1ccccc1-c1ccccc1 ?
10.8 µM

Quick one: IC50 for CCCCOc1ccc(N(Cc2ccc(C(C)(C)C)cc2)C(=O)CN(CC)CC)cn1 ?
34 µM

Quick one: IC50 for O=C(c1cccc2c1OCO2)N(Cc1cccnc1)Cc1ccccc1-c1ccccc1 ?
7.8 µM

Quick one: IC50 for CCOc1ccc(C(=O)N(Cc2cccnc2)Cc2ccccc2-c2ccccc2)cc1 ?
15.9 µM

Quick one: IC50 for COc1ccc(C(=O)N(Cc2cc(C(F)(F)F)cc(C(F)(F)F)c2)c2ccccc2)cc1OC ?
70.8 µM

Quick one: IC50 for COc1cc(C(=O)N(Cc2ccc3ccccc3c2)c2cnc3ccccc3c2)cc(OC)c1OC ?
22.2 µM

Quick one: IC50 for CCOc1ccccc1C(=O)N(Cc1ccc2c(c1)C(C)(C)CCC2(C)C)c1cccnc1 ?
10 µM

Quick one: IC50 for CCOc1ccccc1C(=O)N(Cc1cc(Br)cc(Br)c1)c1cccnc1 ?
14.9 µM

Quick one: IC50 for COc1ccc(N(Cc2ccccc2-c2ccccc2)C(=O)c2cccc(Sc3ccccc3)c2)cc1OC ?
33.8 µM

Quick one: IC50 for CCN(CC)CCCc1ccc(N(Cc2cc(Br)cc(Br)c2)C(=O)c2ccccc2)cc1 ?
14.6 µM

Quick one: IC50 for COc1cccc(N(Cc2ccccc2-c2ccccc2)C(=O)c2ccccc2SCc2ccccc2)c1 ?
40.1 µM

Quick one: IC50 for CCN(CC)CCCc1ccc(N(Cc2ccc3c(c2)C(C)(C)CCC3(C)C)C(=O)c2ccccc2)cc1 ?
13.2 µM

Quick one: IC50 for O=C(c1cc2ccccc2s1)N(Cc1cccnc1)Cc1ccccc1-c1ccccc1 ?
23.9 µM

Quick one: IC50 for CCN(CC)CCCc1ccc(N(Cc2cc(C(F)(F)F)cc(C(F)(F)F)c2)C(=O)c2ccccc2)cc1 ?
12 µM

Quick one: IC50 for CCOc1ccccc1C(=O)N(Cc1cc(C(C)(C)C)cc(C(C)(C)C)c1)c1cccnc1 ?
11.6 µM

Quick one: IC50 for O=C(c1ccccc1SCc1ccccc1)N(Cc1ccccc1-c1ccccc1)c1ccc(Cl)cc1 ?
> 74 µM

Quick one: IC50 for CCC[S+]([O-])c1ccccc1C(=O)N(Cc1ccccc1-c1ccccc1)c1ccc(OC)c(OC)c1 (centres unmarked) ?
6 µM

###

System: Lp(a) production in HepG2^K17 cells
Experiment: LPA3 screen: inhibition of Lp(a) production in transfected HepG2 cells, Lp(a) in media by ELISA
Format: cell-based
Conditions: Homo sapiens, 8 hours, 0.3 to 50 μM compound, Lp(a) normalized for total protein, read-out: Lp A3 IC50
Measured Property: IC50
Could you kindly put the unit after your number?

Quick one: IC50 for O=C(c1cc2ccccc2s1)N(Cc1ccccc1-c1ccccc1)c1ccncc1 ?
10.5 µM

Quick one: IC50 for CCOc1ccccc1C(=O)N(Cc1ccccc1-c1ccccc1)c1ccccn1 ?
14 µM

Quick one: IC50 for CCOc1ccccc1C(=O)N(Cc1ccccc1-c1ccccc1)c1ccc(OC)cc1 ?
11.9 µM

Quick one: IC50 for CCCSc1ccccc1C(=O)N(Cc1ccccc1-c1ccccc1)c1cccc(OC)c1 ?
46.8 µM

Quick one: IC50 for COc1ccc(N(Cc2ccc(Cl)c(Cl)c2)C(=O)c2cc(OC)c(OC)c(OC)c2)cn1 ?
54.6 µM

Quick one: IC50 for CC(C)c1ccc(C(=O)N(Cc2ccc3c(c2)C(C)(C)CCC3(C)C)c2cccnc2)cc1 ?
39.8 µM

Quick one: IC50 for CCOc1ccccc1C(=O)N(Cc1ccc(OC)cc1)c1cccnc1 ?
33.3 µM

Quick one: IC50 for COc1ccccc1N(Cc1ccc2ccccc2c1)C(=O)c1ccccc1 ?
10.2 µM

Quick one: IC50 for COc1ccc(N(Cc2ccccc2-c2ccccc2)C(=O)c2ccccc2SC)cc1 ?
16 µM

Quick one: IC50 for CCCSc1ccccc1C(=O)N(Cc1ccccc1-c1ccccc1)c1ccc(OC)c(OC)c1 ?
16.7 µM

Quick one: IC50 for COc1ccc(N(Cc2ccccc2-c2ccccc2)C(=O)c2ccccc2[N+](=O)[O-])cn1 ?
24.8 µM

Quick one: IC50 for CCN(CC)CCCc1ccc(N(Cc2cc(C(C)(C)C)cc(C(C)(C)C)c2)C(=O)c2ccccc2)cc1 ?
24.5 µM

Quick one: IC50 for CCOc1ccccc1C(=O)N(Cc1ccccc1-c1ccccc1)c1cccnc1 ?
0.9 µM

Quick one: IC50 for O=C(c1ccccc1Br)N(Cc1cccnc1)Cc1ccccc1-c1ccccc1 ?
8.5 µM

Quick one: IC50 for O=C(c1ccccc1Br)N(Cc1ccccc1-c1ccccc1)c1ccncc1 ?
3.8 µM

Quick one: IC50 for COc1ccc(N(Cc2ccccc2-c2ccccc2)C(=O)c2ccc3c(c2)OCO3)cc1 ?
13.4 µM

Quick one: IC50 for CCOc1ccc(C(=O)N(Cc2ccccc2-c2ccccc2)c2ccc(OC)nc2)cc1 ?
11.4 µM

Quick one: IC50 for COc1ccc(N(Cc2cc(C(C)(C)C)cc(C(C)(C)C)c2)C(=O)c2cc(OC)c(OC)c(OC)c2)cn1 ?
19.7 µM

Quick one: IC50 for CCOc1ccccc1C(=O)N(Cc1ccc2ccccc2c1)c1cccnc1 ?
17 µM

Values compiled from patent US6780883B2.
